# target entity: Retinoic acid receptor RXR-alpha (Homo sapiens) (UniProt P19793)
# Sequence (P19793 whole entry, looked up): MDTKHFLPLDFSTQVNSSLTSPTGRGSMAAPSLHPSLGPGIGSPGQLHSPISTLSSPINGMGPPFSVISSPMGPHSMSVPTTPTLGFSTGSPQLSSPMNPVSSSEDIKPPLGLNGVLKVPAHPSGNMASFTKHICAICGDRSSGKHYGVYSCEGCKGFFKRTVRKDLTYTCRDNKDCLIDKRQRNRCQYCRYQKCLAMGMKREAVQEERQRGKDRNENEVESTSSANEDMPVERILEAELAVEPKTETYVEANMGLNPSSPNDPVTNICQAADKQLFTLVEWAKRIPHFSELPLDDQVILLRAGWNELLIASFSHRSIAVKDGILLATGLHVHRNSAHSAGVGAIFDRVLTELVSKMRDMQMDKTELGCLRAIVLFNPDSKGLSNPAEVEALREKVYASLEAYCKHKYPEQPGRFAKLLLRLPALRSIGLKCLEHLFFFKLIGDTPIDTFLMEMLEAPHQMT
# assay summary: qHTS assay to identify small molecule agonists of the RXR signaling pathway (AID 1159527); note: % is set by controls: 0 for no effect and ±100 for the full control effect; nearly all actives have a fitted effect of over 35% in size
# measurement setup: HEK293T RXRa-UAS-bla, beta-lactamase ratio, 16 h; series mostly up to 76.8 µM
# Description: U.S. Tox21 Program National Center for Advancing Translational Sciences [NCATS] NIH Chemical Genomics Center [NCGC] U.S. Environmental Protection Agency [EPA] National Institutes of Environmental Health Sciences [NIEHS] National Toxicology Program [NTP] U.S. Food and Drug Administration [FDA] Tox21 Assay Overview: The Retinoid X receptor (RXR), a nuclear hormone receptor expressed in liver, spleen, placenta, epidermis, central nervous system. […]
Inconclusive results are not listed. The source made the active and inactive calls. Calls come from the whole dose curve.
measured quantity: activation

Below, 10 molecules whose answers are already recorded.
CC(C)(C)c1cc(CCC(=O)OCCSCCOC(=O)CCc2cc(C(C)(C)C)c(O)c(C(C)(C)C)c2)cc(C(C)(C)C)c1O	inactive
O=C(O)C[C@H](O)C[C@H](O)/C=C/c1c(C2CC2)nc2ccccc2c1-c1ccc(F)cc1	-9.56% [at 15.8 µM] (inactive)
CCCCNc1ccc(NCCCC)c2c1C(=O)c1ccccc1C2=O	10.8% [at 15.8 µM] (inactive)
Cc1cc(C)c(O)c(C(C)(C)C)c1	inactive
CC1=CC[C@@H](C(C)(C)O)CC1	inactive
CCc1cccc(C)c1N(C(=O)CS(=O)(=O)O)C(C)COC (stereo not drawn)	inactive
NC(=O)C1CO1 (stereo not drawn)	inactive
Cn1ccnc1	inactive
CSc1nnc(C(C)(C)C)c(=O)[nH]1	inactive
CCOC(=O)[C@H](C)O	inactive

Sure, the documented activation for COc1c(Br)cc(Br)c(C)c1Br is inactive

Sure, the documented activation for N#CCCOCCC#N is inactive

Sure, the documented activation for Clc1cccc(Cl)n1 is inactive

----------
# assay summary: qHTS assay to identify small molecule agonists of the progesterone receptor (PR) signaling pathway - cell viability counter screen (AID 1346799); note: % is set by controls: 0 for no effect and ±100 for the full control effect; nearly all actives have a fitted effect of over 45% in size
# measurement setup: PR-UAS-bla HEK293T viability, CellTiter-Glo luminescence, 16 h; series mostly up to 92.4 µM
Records with an inconclusive call do not appear. Calls of active or inactive are those of the source. The call rests on the fitted dose curve.
Lab note: assign the record to one of Y for active, N for inactive

[Cl][Sc]([Cl])[Cl]	N
CCC(=O)OC/C=C(\C)CCC=C(C)C	N
C/C=C/C(=O)C1=C(C)C=CCC1(C)C	N
COc1c(Br)cc(Br)c(C)c1Br	N
O=C1CCC(=O)N1	N

Here's the next entry for you.
Incoming: Outcome? CC(c1cc(C(C)(C)C)cc(C(C)(C)C)c1O)c1cc(C(C)(C)C)cc(C(C)(C)C)c1O
Outgoing: N

----------
# assay summary: qHTS assay to identify small molecule that activate the aryl hydrocarbon receptor (AhR) signaling pathway - cell viability counter screen (AID 743086); note: nearly all actives have a fitted effect of over 45% in size
# measurement setup: HepG2-AhR-luc viability, CellTiter-Fluor, 24 h; series mostly up to 70.3 µM
Inconclusive results are not listed. Calls of active or inactive are those of the source. The call rests on the fitted dose curve; in most records, active means well fitted cell-killing curve with a large enough effect in the repeat runs; inconclusive means weak or mixed curves, or effect the other way; inactive means flat fitted curve, though single readings scatter.
Lab note: assign the record to one of yes (1) = active, no (0) = inactive

CC(C)(O/N=C(\C(=O)N[C@@H]1C(=O)N2C(C(=O)[O-])=C(C[n+]3ccccc3)CS[C@H]12)c1csc(N)n1)C(=O)O	no (0)

Incoming: Outcome? CC(=O)OCC1=C(C(=O)O)N2C(=O)[C@@H](NC(=O)Cc3ccccc3)[C@H]2SC1
Outgoing: no (0)

Incoming: Outcome? N#Cc1nc(Cl)c(Cl)c(Cl)c1Cl
Outgoing: yes (1)

Incoming: Outcome? Cc1ncc(C[n+]2csc(CCOP(=O)(O)O)c2C)c(N)n1
Outgoing: no (0)

Incoming: Outcome? Cc1ccc2nc(-c3ccc(N)cc3)sc2c1S(=O)(=O)O
Outgoing: no (0)

Incoming: Outcome? CCCCCCCCCCCCN1CCCC1=O
Outgoing: no (0)

Incoming: Outcome? C[C@]12O[C@H](C[C@]1(O)CO)n1c3ccccc3c3c4c(c5c6ccccc6n2c5c31)CNC4=O
Outgoing: yes (1)

Incoming: Outcome? O=C1CCC(c2ccc(-n3ccnc3)cc2)=NN1
Outgoing: no (0)

Incoming: Outcome? CCN(CC)CC#CCOC(=O)C(O)(c1ccccc1)C1CCCCC1 (stereo unspecified)
Outgoing: yes (1)

Incoming: Outcome? C(=C\c1ccncc1)/c1ccccc1
Outgoing: no (0)

Incoming: Outcome? CC12CCC(C1)C(C)(C)C2=O (stereo unspecified)
Outgoing: no (0)

The measurements presented in this section are drawn from PubChem BioAssay (Tox21).
